Molecular target: 5-hydroxytryptamine receptor 1A (Rattus norvegicus, UniProt P19327)
Test: Binding affinity by measuring displacement of [3H]-8-OH-DPAT from 5-hydroxytryptamine 1A receptor in rat hippocampus
Format: tissue-based
pIC50: −log10 of the molar value.
Decide by pIC50: equal to or exceeding 7 means 1, less means -1.

Could you please find out whether `Cl.O=C(NCc1ccc2c(c1)OCO2)[C@H]1Cc2c(sc3ccccc23)CN1` has pIC50 that meets 7 or exceeds it?
1

Could you please find out whether `O=C(NC1CCCCCC1)[C@H]1Cc2c(sc3ccccc23)CN1` has pIC50 that meets 7 or exceeds it?
1

Could you please find out whether CC(C)(C)C1CCC(NC(=O)[C@H]2Cc3c(sc4ccccc34)CN2)CC1 (stereo partly specified) has pIC50 that meets 7 or exceeds it?
1

Could you please find out whether `O=C(Nc1ccccc1)[C@H]1Cc2c(sc3ccccc23)CN1` has pIC50 that meets 7 or exceeds it?
-1

Could you please find out whether `O=C(NC1CCCCC1)[C@H]1Cc2c(sc3ccccc23)CN1` has pIC50 that meets 7 or exceeds it?
1

----------
Target: 5-hydroxytryptamine receptor 1A (Rattus norvegicus, UniProt P19327)
Sequence (P19327 whole entry): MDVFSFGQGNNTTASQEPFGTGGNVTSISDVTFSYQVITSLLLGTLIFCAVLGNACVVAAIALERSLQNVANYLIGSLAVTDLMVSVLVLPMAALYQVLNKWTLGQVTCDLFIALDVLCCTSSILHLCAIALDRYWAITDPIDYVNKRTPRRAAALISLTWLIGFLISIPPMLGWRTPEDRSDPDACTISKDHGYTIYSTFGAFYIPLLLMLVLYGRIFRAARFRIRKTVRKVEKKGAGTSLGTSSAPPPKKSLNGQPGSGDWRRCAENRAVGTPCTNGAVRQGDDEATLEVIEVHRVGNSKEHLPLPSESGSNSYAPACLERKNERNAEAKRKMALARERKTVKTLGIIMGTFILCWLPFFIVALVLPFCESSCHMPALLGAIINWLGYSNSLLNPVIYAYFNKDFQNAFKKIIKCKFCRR
Experiment: Inhibitory concentration against 5-hydroxytryptamine 1A receptor
resultType: pIC50
In textbook form, pIC50 equals minus log to base ten of the concentration in mol/L.

Can you look up the measured pIC50 of `CCCCCCCNC(=O)[C@H]1Cc2c(sc3ccccc23)CN1` for me?
6.90

----------
Molecular target: 5-hydroxytryptamine receptor 1A (Rattus norvegicus, UniProt P19327)
Sequence (P19327 whole entry): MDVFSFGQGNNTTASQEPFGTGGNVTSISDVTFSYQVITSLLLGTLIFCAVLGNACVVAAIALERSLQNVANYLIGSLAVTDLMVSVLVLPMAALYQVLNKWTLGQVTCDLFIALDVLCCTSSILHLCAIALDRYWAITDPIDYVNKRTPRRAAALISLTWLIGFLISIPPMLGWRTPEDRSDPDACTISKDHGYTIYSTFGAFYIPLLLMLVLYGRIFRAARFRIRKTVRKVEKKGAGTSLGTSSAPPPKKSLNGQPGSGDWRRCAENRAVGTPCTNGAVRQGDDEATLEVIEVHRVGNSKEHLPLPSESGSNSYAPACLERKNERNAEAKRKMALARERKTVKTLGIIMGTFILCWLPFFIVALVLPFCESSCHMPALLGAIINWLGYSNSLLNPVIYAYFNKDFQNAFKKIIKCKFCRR
Experiment: Binding affinity by measuring displacement of [3H]-8-OH-DPAT from 5-hydroxytryptamine 1A receptor in rat hippocampus
Assay type: tissue-based
resultType: pIC50
In textbook form, pIC50 equals minus log to base ten of the concentration in mol/L.

Can you look up the measured pIC50 of `O=C(OC1CCCCCC1)[C@H]1Cc2c(sc3ccccc23)CN1` for me?
7.26

Can you look up the measured pIC50 of `O=C(NN1CCCCC1)[C@H]1Cc2c(sc3ccccc23)CN1` for me?
6.68

Can you look up the measured pIC50 of `O=C(NC1CCC1)[C@H]1Cc2c(sc3ccccc23)CN1` for me?
6.63

Can you look up the measured pIC50 of `O=C(OC1CCCC1)[C@H]1Cc2c(sc3ccccc23)CN1` for me?
6.92

Can you look up the measured pIC50 of CC1CCCCC1NC(=O)[C@H]1Cc2c(sc3ccccc23)CN1 (stereo partly specified) for me?
7.55

Can you look up the measured pIC50 of `CCC(CC)NC(=O)[C@H]1Cc2c(sc3ccccc23)CN1` for me?
6.90

Can you look up the measured pIC50 of CC1CCC(NC(=O)[C@H]2Cc3c(sc4ccccc34)CN2)CC1 (stereo partly specified) for me?
7.49

Can you look up the measured pIC50 of `O=C(NCC1CCCCC1)[C@H]1Cc2c(sc3ccccc23)CN1` for me?
7.69

Can you look up the measured pIC50 of O=C(NC1CC2CCC1C2)[C@H]1Cc2c(sc3ccccc23)CN1 (stereo partly specified) for me?
7.18

----------
Target: 5-hydroxytryptamine receptor 1A (Rattus norvegicus)
Experiment: Binding affinity by measuring displacement of [3H]-8-OH-DPAT from 5-hydroxytryptamine 1A receptor in rat hippocampus
Type: tissue-based
Please respond with reported IC50 for every item in the list.
Write the answer as a number in nM, unit excluded.

Can you look up the measured IC50 of `O=C(OC1CCCCC1)[C@H]1Cc2c(sc3ccccc23)CN1` for me?
50.4

Can you look up the measured IC50 of `C[C@H](NC(=O)[C@H]1Cc2c(sc3ccccc23)CN1)c1ccccc1` for me?
58.4

Can you look up the measured IC50 of `O=C(NC1CCCCCCC1)[C@H]1Cc2c(sc3ccccc23)CN1` for me?
22.9

----------
Where a name gives a salt, the structure may show the parent alone.
resultType: Ki (nM)
Write the answer as a number in nM, unit excluded.

Query for D(2) dopamine receptor (Homo sapiens, UniProt P14416): what Ki does the record show for O=C1[C@@H]2[C@H]3CC[C@H](C3)[C@@H]2C(=O)N1CCCCN1CCN(c2ncccn2)CC1 [TANDOSPIRONE HYDROCHLORIDE] ?
28

----------
Biological target: 5-hydroxytryptamine receptor 1A (Rattus norvegicus, UniProt P19327)
Experiment: Binding affinity by measuring displacement of [3H]-8-OH-DPAT from 5-hydroxytryptamine 1A receptor in rat hippocampus
Assay type: tissue-based
Checkbox rule: IC50 lower than 100 nM = true; IC50 not lower than 100 nM = false.

Quick check: IC50 of `Cc1ccc(CNC(=O)[C@H]2Cc3c(sc4ccccc34)CN2)cc1` under 100 nM?
false

Quick check: IC50 of `CCCCCCNC(=O)[C@H]1Cc2c(sc3ccccc23)CN1` under 100 nM?
true

Quick check: IC50 of Cl.O=C(NC1CCCCC1O)[C@H]1Cc2c(sc3ccccc23)CN1 (stereo partly specified) under 100 nM?
false

Quick check: IC50 of `O=C(NC1CCCC1)[C@H]1Cc2c(sc3ccccc23)CN1` under 100 nM?
false

Quick check: IC50 of `O=C(OC1CCCCCCC1)[C@H]1Cc2c(sc3ccccc23)CN1` under 100 nM?
true

Quick check: IC50 of `O=C(NC12CC3CC(CC(C3)C1)C2)[C@H]1Cc2c(sc3ccccc23)CN1` under 100 nM?
true
